experimental-protocol: Hemolytic activity in human red blood cells assessed as hemolysis rate at 512 uM incubated for 1 hr relative to control
Type: toxicity, cell-based, Erythrocyte
test-settings: read-out: Activity
Consider the following compounds and their measured hemolysis at 1 h, 512 µM readings.
// note: answer is a bare numeric in %

hemolysis at 1 h, 512 µM measured on CC(C)[C@H](N)C(=O)N[C@H](C(=O)N[C@H](CCCNC(=N)N)C(=O)N[C@@H](CCCNC(=N)N)C(=O)N[C@@H](Cc1c[nH]cn1)C(=O)N[C@H](C(=O)N[C@H](C(=O)N[C@H](C(=O)N[C@H](C(=O)N[C@H](CCCNC(=N)N)C(=O)N[C@@H](CCCNC(=N)N)C(=O)N[C@@H](Cc1c[nH]cn1)C(=O)N[C@H](C(=O)N[C@H](C(N)=O)C(C)C)C(C)C)C(C)C)C(C)C)C(C)C)C(C)C)C(C)C = -1.2

hemolysis at 1 h, 512 µM measured on CC[C@H](C)[C@H](N)C(=O)N[C@H](C(=O)N[C@H](CCCNC(=N)N)C(=O)N[C@@H](CCCNC(=N)N)C(=O)N[C@@H](Cc1c[nH]cn1)C(=O)N[C@H](C(=O)N[C@H](C(=O)N[C@H](C(=O)N[C@H](C(=O)N[C@H](CCCNC(=N)N)C(=O)N[C@@H](CCCNC(=N)N)C(=O)N[C@@H](Cc1c[nH]cn1)C(=O)N[C@H](C(=O)N[C@H](C(N)=O)[C@@H](C)CC)[C@@H](C)CC)[C@@H](C)CC)[C@@H](C)CC)[C@@H](C)CC)[C@@H](C)CC)[C@@H](C)CC = 1.84

hemolysis at 1 h, 512 µM measured on CC[C@H](C)[C@H](N)C(=O)N[C@H](C(=O)N[C@H](CCCNC(=N)N)C(=O)N[C@@H](CCCNC(=N)N)C(=O)N[C@@H](Cc1c[nH]cn1)C(=O)N[C@H](C(=O)N[C@H](C(N)=O)[C@@H](C)CC)[C@@H](C)CC)[C@@H](C)CC = -1.57

hemolysis at 1 h, 512 µM measured on CC(C)[C@H](N)C(=O)N[C@H](C(=O)N[C@H](CCCNC(=N)N)C(=O)N[C@@H](CCCNC(=N)N)C(=O)N[C@@H](Cc1c[nH]cn1)C(=O)N[C@H](C(=O)N[C@H](C(N)=O)C(C)C)C(C)C)C(C)C = -0.02

----------
Consider the following molecules and their measured MIC95 readings.
Test system: Candida albicans
experimental-protocol: Antifungal activity against Candida albicans CGMCC 2.2086 assessed as inhibition of fungal growth incubated for 48 hrs
Type: functional
// note: answer is a bare numeric in µM

Example entries begin here.
molecule | unit-abbreviation | value-reported
CC[C@H](C)[C@H](N)C(=O)N[C@H](C(=O)N[C@H](CCCNC(=N)N)C(=O)N[C@@H](CCCNC(=N)N)C(=O)N[C@@H](Cc1c[nH]cn1)C(=O)N[C@H](C(=O)N[C@H](C(=O)N[C@H](C(=O)N[C@H](C(=O)N[C@H](CCCNC(=N)N)C(=O)N[C@@H](CCCNC(=N)N)C(=O)N[C@@H](Cc1c[nH]cn1)C(=O)N[C@H](C(=O)N[C@H](C(N)=O)[C@@H](C)CC)[C@@H](C)CC)[C@@H](C)CC)[C@@H](C)CC)[C@@H](C)CC)[C@@H](C)CC)[C@@H](C)CC | µM | 16
OC(Cn1cncn1)(Cn1cncn1)c1ccc(F)cc1F | µM | 4
CC(=O)N1CCN(c2ccc(OCC3COC(Cn4ccnc4)(c4ccc(Cl)cc4Cl)O3)cc2)CC1 (configuration not stated) | µM | 2

Now let's try a different one.
MIC95 measured on C[C@@H]1[C@H](O)[C@@H](C)/C=C/C=C/C=C/C=C/C=C/C=C/C=C/[C@H](O[C@@H]2O[C@H](C)[C@@H](O)[C@H](N)[C@@H]2O)C[C@@H]2O[C@](O)(C[C@@H](O)C[C@@H](O)[C@H](O)CC[C@@H](O)C[C@@H](O)CC(=O)O[C@H]1C)C[C@H](O)[C@H]2C(=O)O = 0.25

----------
System: Candida albicans
experimental-protocol: Antifungal activity against Candida albicans SP3876 assessed as inhibition of fungal growth incubated for 48 hrs
Format: functional
Consider the following molecules and their measured MIC95 readings.
// note: answer is a bare numeric in µM

molecule | MIC95, µM
C[C@@H]1[C@H](O)[C@@H](C)/C=C/C=C/C=C/C=C/C=C/C=C/C=C/[C@H](O[C@@H]2O[C@H](C)[C@@H](O)[C@H](N)[C@@H]2O)C[C@@H]2O[C@](O)(C[C@@H](O)C[C@@H](O)[C@H](O)CC[C@@H](O)C[C@@H](O)CC(=O)O[C@H]1C)C[C@H](O)[C@H]2C(=O)O | 0.25

MIC95 measured on CC(=O)N1CCN(c2ccc(OCC3COC(Cn4ccnc4)(c4ccc(Cl)cc4Cl)O3)cc2)CC1 (stereo not drawn) = 16

----------
Tested on: Candida albicans
experimental-protocol: Antifungal activity against Candida albicans CGMCC 2.2086 assessed as inhibition of fungal growth incubated for 48 hrs
Format: functional
endpoint-name: MIC95

smiles-structure | MIC95
CC(C)[C@H](N)C(=O)N[C@H](C(=O)N[C@H](CCCNC(=N)N)C(=O)N[C@@H](CCCNC(=N)N)C(=O)N[C@@H](Cc1c[nH]cn1)C(=O)N[C@H](C(=O)N[C@H](C(N)=O)C(C)C)C(C)C)C(C)C | > 64 µM
CC[C@H](C)[C@H](N)C(=O)N[C@H](C(=O)N[C@H](CCCNC(=N)N)C(=O)N[C@@H](CCCNC(=N)N)C(=O)N[C@@H](Cc1c[nH]cn1)C(=O)N[C@H](C(=O)N[C@H](C(N)=O)[C@@H](C)CC)[C@@H](C)CC)[C@@H](C)CC | > 64 µM

Record CC(C)[C@H](N)C(=O)N[C@H](C(=O)N[C@H](CCCNC(=N)N)C(=O)N[C@@H](CCCNC(=N)N)C(=O)N[C@@H](Cc1c[nH]cn1)C(=O)N[C@H](C(=O)N[C@H](C(=O)N[C@H](C(=O)N[C@H](C(=O)N[C@H](CCCNC(=N)N)C(=O)N[C@@H](CCCNC(=N)N)C(=O)N[C@@H](Cc1c[nH]cn1)C(=O)N[C@H](C(=O)N[C@H](C(N)=O)C(C)C)C(C)C)C(C)C)C(C)C)C(C)C)C(C)C)C(C)C / Candida albicans, MIC95 recorded as > 64 µM
